TARGET_ENTITY: full-length RORγt in Jurkat cells (Homo sapiens)
Construct: transcriptional activity of the full-length RORγt in Jurkat cells; host or cells: Jurkat cells (ATCC TIB-152)
Sequence (P51449 1-497 isoform P51449-2): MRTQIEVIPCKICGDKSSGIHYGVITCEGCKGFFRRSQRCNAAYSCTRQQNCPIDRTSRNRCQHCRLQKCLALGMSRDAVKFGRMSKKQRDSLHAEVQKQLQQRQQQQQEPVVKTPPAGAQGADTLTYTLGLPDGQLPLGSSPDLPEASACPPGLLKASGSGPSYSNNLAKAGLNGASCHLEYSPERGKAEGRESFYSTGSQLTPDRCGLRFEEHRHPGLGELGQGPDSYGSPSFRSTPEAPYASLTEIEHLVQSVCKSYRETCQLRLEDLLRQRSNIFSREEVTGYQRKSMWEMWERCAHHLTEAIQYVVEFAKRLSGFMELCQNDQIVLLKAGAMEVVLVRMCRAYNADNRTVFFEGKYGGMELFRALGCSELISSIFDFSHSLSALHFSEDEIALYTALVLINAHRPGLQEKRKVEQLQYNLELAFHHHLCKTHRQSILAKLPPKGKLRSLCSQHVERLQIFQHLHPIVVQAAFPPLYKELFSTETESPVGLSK
PROCEDURE_SUMMARY: RORγt 5×RORE Assay in Jurkat Cells (Assay 2)
Format: cell-based
CONDITION_CONTEXT: 5×RORE luciferase reporter, read-out: Avg ROR γt/5x IC50

| COMPOUND | IC50 |
| --- | --- |
| CCS(=O)(=O)c1ccc(CNC(=O)c2ccc3c(c2)CCN(Cc2ccc(Cl)cc2)C3C)cc1 (racemic) | 100 to 1000 nM |
| CCS(=O)(=O)c1ccc(CNC(=O)c2ccc3c(c2)C(C)(C)CN(Cc2ccc(C#N)cc2)C3C(C)C)cc1 (single isomer, unassigned) [Hy2A-23.1] | < 100 nM |
| CCOC(=O)c1cnc(N2CCc3cc(C(=O)NCc4ccc(S(=O)(=O)CC)cc4)ccc3C2C(C)C)nc1C(F)(F)F (racemic) | 100 to 1000 nM |

* * *

TARGET_ENTITY: full-length RORγt in Jurkat cells (Homo sapiens)
Construct: transcriptional activity of the full-length RORγt in Jurkat cells; host or cells: Jurkat cells (ATCC TIB-152)
PROCEDURE_SUMMARY: RORγt 5×RORE Assay in Jurkat Cells (Assay 2)
Type: cell-based
CONDITION_CONTEXT: 5×RORE luciferase reporter, Table 20, read-out: Avg ROR γt/5x IC5

| MOLECULE | IC50 |
| --- | --- |
| CCOC(=O)c1cnc(N2Cc3cc(C(=O)NCc4ccc(S(=O)(=O)CC)cc4)ccc3[C@H](C(C)C)C2)nc1C(F)(F)F (single isomer, unassigned) | < 100 nM |
| CC[C@H]1CN(c2ncc(C(F)(F)F)cc2C)Cc2cc(C(=O)NCc3ccc(S(=O)(=O)CC)cc3)ccc21 (single isomer, unassigned) | 100 to 1000 nM |
| CC[C@@H]1CN(c2ncc(C(F)(F)F)cn2)Cc2cc(C(=O)N[C@@H](CO)c3ccc(S(=O)(=O)CC)cn3)ccc21 (single isomer, unassigned) | < 100 nM |
| CC[C@@H]1CN(C2CCC(F)(F)CC2)Cc2cc(C(=O)N[C@@H](CO)c3ccc(S(=O)(=O)CC)cc3)ccc21 (single isomer, unassigned) | > 1000 nM |
| CCS(=O)(=O)c1ccc(CNC(=O)c2ccc3c(c2)CN(c2nccc(C(F)(F)F)n2)C[C@@H]3C(C)C)cc1 (single isomer, unassigned) | > 1000 nM |

* * *

# Lookup of reported Ki keyed by entry
TARGET_ENTITY: recombinant RORγ Ligand Binding Domain (LBD) protein (Homo sapiens)
Construct: 6×His; GST
PROCEDURE_SUMMARY: Radio-Ligand RORγ Binding Assay (Assay 1)
CONDITION_CONTEXT: radio-ligand competition, 25-hydroxy [26,27-3H]-cholesterol, RORγ LBD; read-out: Avg ROR Bind Ki

| COMPOUND | TARGET_ENTITY | Ki |
| --- | --- | --- |
| CCS(=O)(=O)c1ccc([C@H](CO)NC(=O)c2ccc3c(OCc4ccc(F)cc4)nc(C)cc3c2)cc1 [Hy1A-13] | recombinant RORγ Ligand Binding Domain (LBD) protein (Homo sapiens) | < 100 nM |
| CC[C@H]1CN(c2ncc(C3CC3)cn2)Cc2cc(C(=O)N[C@@H](CO)c3ccc(S(=O)(=O)CC)cc3)ccc21 (single isomer, unassigned) [Hy7-11.2] | recombinant RORγ Ligand Binding Domain (LBD) protein (Homo sapiens) | < 100 nM |
| CCS(=O)(=O)c1ccc(CNC(=O)c2cnc3c(C4CC4)n(C[C@H]4CC[C@H](C(F)(F)F)CC4)nc3c2)cc1 [Hy3B-2] | recombinant RORγ Ligand Binding Domain (LBD) protein (Homo sapiens) | < 100 nM |
| CCS(=O)(=O)c1ccc(CNC(=O)c2ccc3c(c2)CCN(c2ncc(C#N)cn2)[C@@H]3C(C)C)cc1 (single isomer, unassigned) [Hy2A-1.1] | recombinant RORγ Ligand Binding Domain (LBD) protein (Homo sapiens) | 100 to 1000 nM |
| CCS(=O)(=O)c1ccc(CNC(=O)c2ccc3c(c2)CN(c2ncc(-c4ccc(=O)n(C)c4)cn2)C[C@H]3C(C)C)cc1 (single isomer, unassigned) [Hy7-24.1] | recombinant RORγ Ligand Binding Domain (LBD) protein (Homo sapiens) | < 100 nM |
| CCC1CN(C2CCC(C(F)(F)F)CC2)Cc2cc(C(=O)NC(CO)c3ccc(S(=O)(=O)CC)cc3)ccc21 (single isomer, unassigned) [Hy7-35.4] | recombinant RORγ Ligand Binding Domain (LBD) protein (Homo sapiens) | 100 to 1000 nM |

* * *

TARGET_ENTITY: recombinant RORγ Ligand Binding Domain (LBD) protein (Homo sapiens, UniProt P51449)
Construct: 6×His; GST
Sequence (P51449 269-508 limits assumed): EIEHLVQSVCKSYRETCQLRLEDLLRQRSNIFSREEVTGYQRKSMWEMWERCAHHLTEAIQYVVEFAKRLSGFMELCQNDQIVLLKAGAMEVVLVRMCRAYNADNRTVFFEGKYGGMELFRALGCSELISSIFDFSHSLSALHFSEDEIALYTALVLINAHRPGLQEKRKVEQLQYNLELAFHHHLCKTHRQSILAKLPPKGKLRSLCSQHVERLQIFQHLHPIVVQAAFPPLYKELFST
PROCEDURE_SUMMARY: Radio-Ligand RORγ Binding Assay (Assay 1)
CONDITION_CONTEXT: radio-ligand competition, RORγ LBD; head without unit (Tables 15, 17); read-out: Avg ROR Bind Ki
Form field: Ki (one value per entry).
ATTRIBUTE_MEASURED: Ki

| COMPOUND | EXPERIMENTAL_VALUE |
| --- | --- |
| CCS(=O)(=O)c1ccc(CNC(=O)c2cc3ccnc(OCc4ccc(C(F)(F)F)cc4)c3n2C)cc1 [Hy4-3] | < 100 nM |
| CCS(=O)(=O)c1ccc(CNC(=O)c2cnc3c(c2)CCN(c2ncc(C#N)cn2)[C@@H]3C(C)C)cc1 (single isomer, unassigned) [Hy2B-1.2] | > 1000 nM |
| CCS(=O)(=O)c1ccc(CNC(=O)c2cnc3c(c2)CCN(C[C@H]2CC[C@H](C(F)(F)F)CC2)[C@@H]3C(C)C)cc1 (single isomer, unassigned) [Hy2B-9.2] | 100 to 1000 nM |
| CCS(=O)(=O)c1ccc(CNC(=O)c2cc3ccnc(OC[C@H]4CC[C@H](C(F)(F)F)CC4)c3[nH]2)cc1 [Hy4-5] | 100 to 1000 nM |
| CCS(=O)(=O)c1ccc(CNC(=O)c2cnc3c(c2)CCN(Cc2ccc(Cl)cc2)C3C(C)C)cc1 (single isomer, unassigned) [Hy2B-8.1] | < 100 nM |
| CCOC(=O)c1cnc(N2CCc3cc(C(=O)NCc4ccc(S(=O)(=O)CC)cc4)cnc3[C@H]2C(C)C)nc1C(F)(F)F (single isomer, unassigned) [Hy2B-5.1] | 100 to 1000 nM |

* * *

Known Ki of a selection of molecules
TARGET_ENTITY: recombinant RORγ Ligand Binding Domain (LBD) protein (Homo sapiens)
Construct: 6×His; GST
PROCEDURE_SUMMARY: Radio-Ligand RORγ Binding Assay (Assay 1)
CONDITION_CONTEXT: radio-ligand competition, 25-hydroxy [26,27-3H]-cholesterol, RORγ LBD; read-out: Avg ROR Bind Ki
ATTRIBUTE_MEASURED: Ki

| MOLECULE | EXPERIMENTAL_VALUE |
| --- | --- |
| CCS(=O)(=O)c1ccc([C@H](CO)NC(=O)c2ccc3c(OC[C@@H]4CC[C@@H](C(F)(F)F)OC4)nc(C)cc3c2)cc1 (single isomer, unassigned) | < 100 nM |
| CCOc1cnc(N2Cc3cc(C(=O)NCc4ccc(S(=O)(=O)CC)cc4)ccc3[C@@H](C(C)C)C2)nc1 (single isomer, unassigned) | 100 to 1000 nM |
| CCOC(=O)c1cnc(N2CCc3cc(C(=O)NCc4ccc(S(=O)(=O)CC)cc4)ccc3[C@@H]2C(C)C)nc1 (single isomer, unassigned) | 100 to 1000 nM |
| CCS(=O)(=O)c1ccc([C@H](CO)NC(=O)c2ccc3c(OCc4ccc(C(F)(F)F)cc4)cc(C)nc3c2)cc1 | < 100 nM |
| CCS(=O)(=O)c1ccc(CNC(=O)c2ccc3c(c2)CCN(Cc2ccc(Cl)cn2)C3C(C)C)cc1 (racemic) | < 100 nM |
| CCS(=O)(=O)c1ccc(CNC(=O)c2ccc3c(c2)C(C)(C)CN(Cc2cnc(C)cn2)[C@@H]3C(C)C)cc1 (single isomer, unassigned) | 100 to 1000 nM |
| CCS(=O)(=O)c1ccc([C@H](CO)NC(=O)c2ccc3c(OCC4CCC(F)(F)CC4)nc(C)cc3c2)cc1 | < 100 nM |
| CCS(=O)(=O)c1ccc(CNC(=O)c2ccc3c(c2)CCN(Cc2ccc(Cl)cc2)C3C(C)C)cc1 (racemic) | < 100 nM |
| CCS(=O)(=O)c1ccc(CNC(=O)c2ccc3c(c2)CCN(Cc2ccc(Cl)cc2)[C@@H]3C(C)C)cc1 (single isomer, unassigned) | < 100 nM |
| CCS(=O)(=O)c1ccc(CNC(=O)c2ccc3c(c2)CN(Cc2ccc(Cl)cc2)C[C@@H]3C(C)C)cc1 (single isomer, unassigned) | < 100 nM |
| CCS(=O)(=O)c1ccc(CNC(=O)c2ccc3c(OC[C@H]4CC[C@H](C(F)(F)F)CC4)nc(C)cc3c2)cc1 | < 100 nM |
| CCS(=O)(=O)c1ccc(CNC(=O)c2sc3nc(C)nc(OC[C@H]4CC[C@H](C(F)(F)F)CC4)c3c2C)cc1 | < 100 nM |
| CC[C@@H]1CN(c2ncc(C3CC3)cn2)Cc2cc(C(=O)N[C@@H](CO)c3ccc(S(=O)(=O)CC)cc3)ccc21 (single isomer, unassigned) | < 100 nM |
| CCC1CN(c2ncc(C(F)(F)F)cn2)Cc2cc(C(=O)N[C@@H](CO)c3ccc(S(=O)(=O)CC)cc3)ccc21 (single isomer, unassigned) [Hy7-17.1] | < 100 nM |
| CCS(=O)(=O)c1ccc(CNC(=O)c2ccc3c(c2)CN(c2ncc(C4CC4)cn2)C[C@H]3C(C)C)cc1 (single isomer, unassigned) | < 100 nM |
| CCS(=O)(=O)c1ccc(CNC(=O)c2ccc3c(c2)CN(c2ncc(N4CCOCC4)cn2)C[C@H]3C(C)C)cc1 (single isomer, unassigned) | 100 to 1000 nM |
| CC[C@@H]1CN(c2ncc(C(F)(F)F)cc2C#N)Cc2cc(C(=O)N[C@@H](CO)c3ccc(S(=O)(=O)CC)cc3)ccc21 (single isomer, unassigned) | < 100 nM |
| CCS(=O)(=O)c1ccc([C@H](CO)NC(=O)c2ccc3c(OCC4CC(F)(F)C4)nc(C)cc3c2)cc1 | < 100 nM |
| CCOc1cnc(N2Cc3cc(C(=O)NCc4ccc(S(=O)(=O)CC)cc4)ccc3[C@H](C(C)C)C2)nc1 (single isomer, unassigned) | < 100 nM |
| CCS(=O)(=O)c1ccc([C@H](CO)NC(=O)c2sc3nc(C)nc(OCc4ccc(C(F)(F)F)cc4)c3c2C)cc1 | < 100 nM |
| CCS(=O)(=O)c1ccc(CNC(=O)c2ccc3c(c2)CN(c2ncc(N4CCOCC4)cn2)C[C@@H]3C(C)C)cc1 (single isomer, unassigned) | > 1000 nM |
| CCS(=O)(=O)c1ccc(CNC(=O)c2ccc3c(c2)CCN(Cc2ccc(OC(F)F)nc2)[C@H]3C(C)C)cc1 (single isomer, unassigned) | < 100 nM |
| CCS(=O)(=O)c1ccc(CNC(=O)c2ccc3c(c2)CCN(Cc2ccc(Cl)cc2)[C@H]3C(C)C)cc1 (single isomer, unassigned) | < 100 nM |
| CCS(=O)(=O)c1ccc([C@H](CO)NC(=O)c2ccc3c(C4CC4)n(C[C@H]4CC[C@H](C(F)(F)F)CC4)nc3c2)nc1 | < 100 nM |
